# Tested on: HCT-116
# ASSAY_DETAILS: NCI tumour cell line growth inhibition, 48 h
The source made the active and inactive calls. Rule as the data show it: active = GI50 up to about 1.1 µM and inactive = higher.
Possible outcomes: active, inactive

MOLECULE: O=C(O)c1c(-c2ccccc2)c(=O)[nH]c2ccccc12
LABEL: inactive
//
MOLECULE: Nc1nc(=O)c2c([nH]1)NCC(CNc1ccc(C(=O)N[C@@H](CCC(=O)O)C(=O)O)cc1)N2C=O (some centres undefined)
LABEL: inactive
//
MOLECULE: Cc1c(C(=O)C/C(=N\O)C(=O)Nc2cc(Cl)c(Cl)cc2Cl)[n+]([O-])c2ccccc2[n+]1[O-]
LABEL: inactive
//
MOLECULE: O=C1NC(N2CCOCC2)=N/C1=C\c1cccs1
LABEL: inactive
//
MOLECULE: O=C(c1c(Cl)cc(Cl)cc1Cl)N(Cc1cccnc1)C(=S)N(Cc1cccnc1)C(=O)c1c(Cl)cc(Cl)cc1Cl
LABEL: inactive
//
MOLECULE: C1COCCN1.CN(C)c1ccc(-c2c(C#N)c(N)nc(S)c2C#N)cc1
LABEL: inactive
//
MOLECULE: O=[N+]([O-])c1c(F)c(F)c2c(c1F)Nc1ccccc1S2
LABEL: inactive
//
MOLECULE: CCC(C)N1CN(c2ccccc2)C2(CCN(CCCC(=O)c3ccc(F)cc3)CC2)C1=O (centres undefined)
LABEL: active
//
MOLECULE: CC(NC(=O)/C(=C/c1ccccc1)NC(=O)c1ccccc1)C(=O)O (centres undefined)
LABEL: inactive
